Biological target: Left-right determination factor 2 (Homo sapiens)
Assay: LEFTY2 binders on small-molecule microarrays, primary screen, biochemical, small-molecule microarray, 635 nm fluorescence scan (AID 1110)
Details: LEFTY2 binding, higher = more signal
Given measured composite z-score, output 1 (yes) if it is greater than or equal to 0.4 and 0 (no) if not.

Example entries and their recorded answers appear below.
{"COMPOUND": "CCCCC(=C=CC[C@@H](O)c1ccccc1OCCO)C[C@@H](O)COCc1ccccc1", "LABEL CLASS": "0 (no)"}
{"COMPOUND": "C=CC[C@]1(C(=O)O)COC(c2ccc(OCCCO)cc2)=N1", "LABEL CLASS": "0 (no)"}

Problem: Is composite z-score for CCCCCCc1nc(-c2cc(C)c(OC)c(C)c2)c(C)c2c1[Si](C(C)C)(C(C)C)OC2 at or above 0.4?
Result: 0 (no)

Problem: Please tell me: is the compound O=C(N1CCCCC1)[C@@]1(CCS(=O)(=O)c2ccccc2)COC(c2ccc(OCCCO)cc2)=N1 at or over 0.4 in terms of composite z-score?
Result: 0 (no)

Problem: Say whether NC(N)=NCCCn1cc(CNC(=O)[C@@H](N)Cc2ccccc2)nn1 shows composite z-score of 0.4 or more.
Result: 1 (yes)

Problem: Check this compound for composite z-score at or above 0.4: C=CCOC(=O)[C@H]1[C@@H]2C(=O)O[C@@H](c3ccccc3)[C@@H](c3ccccc3)N2[C@@H](c2ccc(OCCOC(=O)[C@@H]3C[C@@H]4C(=O)N[C@@H](CCCCN(C)C)C(=O)N4[C@@H]3c3ccc(O)cc3)cc2)[C@]12C(=O)Nc1ccccc12
Result: 1 (yes)

Problem: Can COCCCNC(=O)[C@]1(CCS(=O)(=O)c2ccccc2)N=C(c2ccc(OCCCO)cc2)O[C@@H]1c1ccccc1CN=[N+]=[N-] be said to have composite z-score at or above 0.4?
Result: 0 (no)

Problem: Given COc1ccc([Si](C)(C)[C@@H]2[C@@H](CC(=O)N3Cc4ccccc4C[C@H]3CO)O[C@]3(C(=O)N(C)c4ccccc43)[C@H]2C)cc1 , state whether its composite z-score is at least 0.4.
Result: 1 (yes)

Problem: Textbook exercise: given the entry CCOC(=O)C[C@H]1[C@H](OC(=O)c2ccc(C(=O)c3ccccc3)cc2)[C@@H](NC(=O)Cc2ccc(OC)cc2)c2cc(OCCCO)ccc2N1C(=O)c1ccccc1 , state whether its composite z-score is greater than or equal to 0.4.
Result: 0 (no)

Problem: Check this compound for composite z-score at or above 0.4: CCOC(=O)C[C@H]1[C@H](OC(=O)c2cc3ccccc3oc2=O)[C@@H](NC(=O)c2ccc(-c3ccccc3)cc2)c2cc(OCCCO)ccc2N1C(=O)c1ccc2ccccc2n1
Result: 1 (yes)

Problem: # check: composite z-score of O=C1C[C@@](C(=O)NCCN2CCOCC2)(c2ccc([N+](=O)[O-])cc2)[C@@H](c2ccc(CO)cc2I)N1C1CCCCC1 is greater than or equal to 0.4
Result: 0 (no)

Problem: // inclusive: composite z-score at least 0.4? input: COc1cc2c(cc1O)C(C)N(Cc1ccc([N+](=O)[O-])o1)CC2 (centres undefined)
Result: 0 (no)

Problem: Could you verify whether the entry C=CCOC(=O)[C@H]1[C@@H]2C(=O)O[C@@H](c3ccccc3)[C@@H](c3ccccc3)N2[C@@H](c2ccc(OCCOC(=O)[C@H]3C[C@H]4C(=O)N[C@@H](CC(C)C)C(=O)N4[C@H]3c3cccc(OCCO)c3)cc2)[C@]12C(=O)Nc1ccc(I)cc12 shows composite z-score of no less than 0.4?
Result: 1 (yes)

Problem: Could you please find out whether CN(C)c1ccc(C(O)C2C=CC3C(=O)N(c4ccccc4)C(=O)C3N2Nc2ccc([N+](=O)[O-])cc2)cc1 (centres undefined) has composite z-score that meets 0.4 or exceeds it?
Result: 0 (no)

* * *

Test: basal HepG2 mitochondrial membrane potential changes, profiling panel, cell-based, JC-1 fluorescence, 24 h, 100 nL compound (AID 1167); also: test concentration not given here
Settings: higher = more signal
MEASURED ENDPOINT: z-score
I'd appreciate a reply containing only the number, no unit.

{"SMILES RECORD": "CCOC(=O)[C@H]1[C@@H]2C(=O)N3CCC[C@H]3[C@H](O[Si](C(C)C)(C(C)C)C(C)C)[C@H]2C=C2CCN(S(=O)(=O)c3ccc(C)cc3)C[C@H]21", "MEASURED ENDPOINT": "z-score", "RECORDED RESULT": 1.51}
{"SMILES RECORD": "CCOC(=O)C[C@H]1[C@H](OC(=O)c2cc3ccccc3oc2=O)[C@@H](NC(=O)c2ccc(-c3ccccc3)cc2)c2cc(OCCCO)ccc2N1C(=O)c1ccccc1", "MEASURED ENDPOINT": "z-score", "RECORDED RESULT": 1.27}
{"SMILES RECORD": "CN(C)CCCNC(=O)[C@@H]1c2ccccc2C(=O)N(Cc2ccccc2Cl)[C@H]1c1ccc(CO)cc1", "MEASURED ENDPOINT": "z-score", "RECORDED RESULT": 1.5}

Please find the next molecule below.
Problem: // z-score lookup, key: COC(=O)c1c2oc(c1C(=O)OC)C(=O)N(Cc1ccccc1)Cc1cn(nn1)C[C@H](Cc1ccccc1)NC(=O)N[C@H](CO)CC2
Result: 1.9

* * *

Assay: small-molecule microarray binders of probe aWnt5a, primary screen, biochemical, biotinylated probe, 635/667 nm fluorescence (AID 1113);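 also: score merges 667 nm fluorescence intensity with signal-to-noise per printed feature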
Conditions: higher = more signal
Classify as follows. Reported composite z-score greater than or equal to -0.03: satisfied. Reported composite z-score below: not satisfied.

See these solved cases before continuing.
{"SMILES RECORD": "[N-]=[N+]=Nc1ccccc1[C@H]1OC(c2ccc(OCCCO)cc2)=N[C@@]1(CCS(=O)(=O)c1ccccc1)C(=O)NCCN1CCOCC1", "LABEL CLASS": "satisfied"}
{"SMILES RECORD": "CCOC(=O)C[C@H]1[C@H](OC(=O)c2ccccc2-c2ccccc2)[C@@H](NC(=O)c2ccc(-c3ccccc3)cc2)c2cc(OCCCO)ccc2N1C(=O)c1ccc2ccccc2n1", "LABEL CLASS": "not satisfied"}

Problem: Assess whether reported composite z-score for CCCNC(=O)[C@@]1(c2ccc([N+](=O)[O-])cc2)CC(=O)N(C2CCCCC2)[C@@H]1c1ccc(CO)cc1 sits at -0.03 or higher.
Result: satisfied

Problem: I'd appreciate it if you could say whether CCCCC=C[C@@H](NC(=O)c1ccc(-c2ccccc2)cc1)c1ccccc1 has composite z-score at least equal to -0.03.
Result: satisfied

Problem: Check if composite z-score >= -0.03 (inclusive). Item: COCCOC(=O)N1C(=O)[C@@]2(c3cc(C#Cc4ccc(OC)cc4)ccc31)[C@H](C(=O)Nc1nc3ccccc3s1)[C@H]1C(=O)O[C@H](c3ccccc3)[C@H](c3ccccc3)N1[C@@H]2c1ccc(OCCO)cc1
Result: not satisfied

Problem: Dear colleague, could you confirm whether COCCOC(=O)N1C(=O)[C@@]2(c3cc(C#CC4=CCCCC4)ccc31)[C@H](c1ccc(OCCO)cc1)N1[C@H](c3ccccc3)[C@H](c3ccccc3)OC(=O)[C@H]1[C@@H]2C(=O)N1CCN(c2ncccn2)CC1 has composite z-score at or above -0.03?
Result: not satisfied

* * *

# Lookup of reported z-score keyed by entry
Experiment: splicing luciferase reporter signal modulators, primary screen, spliceosome inhibition project, cell-based, HEK293, splice +/- reporter (AID 1101);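 also: HEK293 cells carrying a splicing-competent luciferase reporter gene; test concentration not given here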
Conditions: luminescence, 24 h, higher = more signal, called active from +8 up or from −8 down
The source made the active and inactive calls.

{"COMPOUND": "CC(CO)N1C(=O)[C@@H]2[C@H]3C(=O)OCC=C[C@H]3OC23C=CCN(CCN2CCOCC2)C(=O)[C@@H]13 (some centres not stated)", "z-score": "0.497 (inactive)"}
{"COMPOUND": "CCCC[C@@H]1C[C@H]1[C@@H](NC(=O)c1ccccc1)c1ccc(C(F)(F)F)cc1", "z-score": "-0.188 (inactive)"}

Problem: Please report the recorded z-score for NC(=O)NCC#Cc1ccc2c(c1)[C@]1(C(=O)N2)[C@H](C(=O)O)[C@H]2C(=O)O[C@H](c3ccccc3)[C@H](c3ccccc3)N2[C@@H]1c1ccc(OCCO)cc1 .
Result: -0.253 (inactive)

Problem: Returns the measured z-score for the input compound. Input: C=CCC(OC(C)=O)[C@@H]1[C@@H](N(Cc2cc3ccccc3o2)C(=O)Cc2ccc(F)cc2)c2cc(OCCCO)ccc2N1C(=O)c1ccc2ccccc2c1 (some centres not stated)
Result: 0.111 (inactive)

Problem: Sample C[C@@H]1NC(=O)[C@@]23C(=O)N[C@@H](Cc4ccccc4)C2[C@H](C)[C@@]2(C)O[C@H]2C3/C=C/C/C=C\CNC(=O)[C@@H]2CCCN2C1=O (some centres not stated) — what was its z-score?
Result: -0.0139 (inactive)

Problem: Would you kindly share the measured z-score for C=CC[C@@]1(C(=O)N2CCOCC2)N=C(c2ccc(OCCCO)cc2)O[C@@H]1c1ccccc1CN=[N+]=[N-] ?
Result: 1.02 (inactive)

Problem: Look at this compound and give its reported z-score. CCCCC(O)C1C=CC2C(=O)N(c3ccccc3)C(=O)C2N1Nc1ccc(C(C)C)cc1 (configuration not stated)
Result: -0.479 (inactive)

The measurements presented in this section are drawn from PubChem BioAssay.
